Hi there, I'd appreciate the recorded pIC50 for every entry that follows.
Biological target: UniProt P40337
Sequence (P40337 whole entry): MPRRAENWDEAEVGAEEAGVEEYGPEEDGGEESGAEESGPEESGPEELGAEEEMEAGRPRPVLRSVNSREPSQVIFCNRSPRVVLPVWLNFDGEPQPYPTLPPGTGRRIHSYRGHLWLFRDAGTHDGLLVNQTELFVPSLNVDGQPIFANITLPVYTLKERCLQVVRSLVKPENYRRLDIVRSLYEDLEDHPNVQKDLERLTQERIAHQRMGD
Assay: VHL HEK-293 BRET Assay
Recall that pIC50 is obtained by taking minus log10 of the concentration measured in molar.

-- ask Which value of pIC50 has been reported for NC(=O)[C@@H](Cc1ccc(-c2ccccc2)cc1)NC(=O)C1C[C@@H](O)CN1C(=O)[C@H](C1CCC1)n1cc(C2CC2)nn1 (stereo not given in full) in the records?
-- reply 6.72

-- ask Which value of pIC50 has been reported for "COC(=O)c1nnn([C@H](C(=O)N2C[C@H](O)C[C@H]2C(=O)N[C@H](Cc2ccc(-c3ccccc3)cc2)C(N)=O)C(C)C)c1C" in the records?
-- reply 5.20
